// provenance: PubChem BioAssay (NCI)

# Tested on: NCI-H460 lung
Choose the fitting class; nothing outside yes for active, no for inactive is accepted.

The following compounds have reported results that may help.
compound	label-value
CO[C@@H]1CC[C@]2(C)OC[C@H](C)[C@@H]3C[C@@H](C)[C@@H](OC(C)=O)[C@@H]4[C@H]3[C@@H]2O[C@H]4C[C@@]1(C)O	no
CCOC(=O)Nc1c(C)nc2ccccn12	no
Cc1cccc(NC2=C(Cl)C(=O)c3nc(C)ccc3C2=O)c1	no
CNCCCNc1ccnc2cc(Cl)ccc12	no
CCCCNCCCNCCCNC(=O)c1csc(-c2csc(CCNC(=O)C(NC(=O)C(C)C(O)C(C)NC(=O)C(NC(=O)c3nc(C(CC(N)=O)NCC(N)C(N)=O)nc(N)c3C)C(OC3OC(CO)C(O)C(O)C3OC3OC(CO)C(O)C(OC(N)=O)C3O)c3cnc[nH]3)C(C)O)n2)n1 (stereo not drawn)	yes

Q: Hey, what did the test say about `Cc1nc2c(Br)cc(Br)cc2c(=O)n1-c1nnc(-c2cccc(Cl)c2Cl)c(N)n1` ?
A: no

Q: Then this compound: `NCCCn1c2c(c3ccc([N+](=O)[O-])cc3c1=O)C(=O)c1cc(I)ccc1-2`
A: yes

Q: Now the same for `COc1ccc(CNc2c3ccccc3nc3ccccc23)cc1F`
A: no
